Hello, the source for this data is patent US20260109721A1, in case you need it.

# Tested on: HepG2 cell line
# ASSAY OVERVIEW: In vitro toxicity study on HepG2 cell line (resazurin, viability and IC50)
# Format: cell-based, human
# ASSAY SETUP: HepG2 cells, 12.5 μM lipid, 48 h post-treatment, resazurin, relative to ethanol vehicle controls
Readings of Viability (%) at different lipid concentrations, mean for the listed compounds
QUANTITY NAME: Viability (%) at different lipid concentrations, mean

- COMPOUND: "CCCCC/C=C\\C/C=C\\CCCCCCCCOC(CCCCCCC/C=C\\C/C=C\\CCCCC)O[Si](C)(C)OCCCCCCN(CCCCO)CCCCO (stereo not shown) [Example 62]"
  ENDPOINT VALUE: 110.2
- COMPOUND: "CCCCC/C=C\\C/C=C\\CCCCCCCCOC(CCCCCCC/C=C\\C/C=C\\CCCCC)O[Si](C)(C)OCCCCCCN(C)CCO (stereo not shown) [Example 56]"
  ENDPOINT VALUE: 94.6
- COMPOUND: "CCCCC/C=C\\C/C=C\\CCCCCCCCOC(CCCCCCC/C=C\\C/C=C\\CCCCC)O[Si](C)(C)OCCCCCCN1CCCCC1 (stereo not shown) [Example 57]"
  ENDPOINT VALUE: 93.7
- COMPOUND: "CCCCC/C=C\\C/C=C\\CCCCCCCC(OCCCCCCCCCCCCCCCC)O[Si](C)(C)OCCCCCCN(CCO)CCO (stereo not shown) [Example 44]"
  ENDPOINT VALUE: 98.5
- COMPOUND: "CCCCC/C=C\\C/C=C\\CCCCCCCCO[Si](C)(C)OC(CCCCCCC/C=C\\C/C=C\\CCCCC)OCCCCCCN(CCO)CCO (stereo not shown) [Example 40]"
  ENDPOINT VALUE: 97.6
- COMPOUND: "CCCCCCCC/C=C\\CCCCCCCC(OCCC(C)CCCC(C)CCCC(C)CCCC(C)C)O[Si](C)(C)OCCCCCCN(CCO)CCO (stereo not shown) [Example 75]"
  ENDPOINT VALUE: 109.2
- COMPOUND: "CCCCCCCC/C=C\\CCCCCCCCOC(=O)C(C)(C)CC(OCCCCCCCC/C=C\\CCCCCCCC)O[Si](C)(C)OCCCCCCN(C)CCO (stereo not shown) [Example 93]"
  ENDPOINT VALUE: 99.0
- COMPOUND: "CCCCCCCC/C=C\\CCCCCCCCOC(=O)C(C)(C)CC(OCCCCCCCC/C=C\\CCCCCCCC)O[Si](C)(C)OCCCCCCN1CCCCC1CO (stereo not shown) [Example 89]"
  ENDPOINT VALUE: 97.9
- COMPOUND: "CCCCCCCC/C=C\\CCCCCCCCOC(=O)C(C)(C)CC(OCCCCCCCC/C=C\\CCCCCCCC)O[Si](C)(C)OCCCCCCN(CCO)CCN(CCO)CCCCCCO[Si](C)(C)OC(CC(C)(C)C(=O)OCCCCCCCC/C=C\\CCCCCCCC)OCCCCCCCC/C=C\\CCCCCCCC (stereo not shown) [Example 96]"
  ENDPOINT VALUE: 98.94
- COMPOUND: "CCCCCCCCO[Si](C)(C)O[Si](C)(C)OC(CCCCCCC)OCCCCCCN(C)CCN(C)CCN(C)CCCCCCOC(CCCCCCC)O[Si](C)(C)O[Si](C)(C)OCCCCCCCC (stereo not shown) [Example 83]"
  ENDPOINT VALUE: 98.95
- COMPOUND: "CCCCC/C=C\\C/C=C\\CCCCCCCC(OCCCCCCCC/C=C\\CCCCCCCC)O[Si](C)(C)OCCCCCCN(CCO)CCO (stereo not shown) [Example 45]"
  ENDPOINT VALUE: 99.4
- COMPOUND: "CCCCCCCC/C=C\\CCCCCCCCOC(=O)C(C)(C)CC(OCCCCCCCC/C=C\\CCCCCCCC)O[Si](C)(C)OCCCCCCN1CCCCC1 (stereo not shown) [Example 87]"
  ENDPOINT VALUE: 97.0
- COMPOUND: "C#CCN(C)CCCCCCO[Si](C)(C)OC(CCCCCCC/C=C\\C/C=C\\CCCCC)OCCCCCCCC/C=C\\C/C=C\\CCCCC (stereo not shown) [Example 67]"
  ENDPOINT VALUE: 97.1
